// reported FACS-Seq fitted mean (log10) per item
B1: library; a variant is named by its letters at N, in order (parent)
chain: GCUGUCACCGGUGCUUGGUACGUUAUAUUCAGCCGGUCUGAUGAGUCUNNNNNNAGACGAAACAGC

# Variants of: B1
# Test description: FACS-Seq fitted mean relative fluorescence mCherry/BFP without ligand (log10 relative fluorescence); HEK293T overexpressing SLC46A1; higher = higher reporter protein expression
# Measurement conditions: without (6R,S)-folinic acid; ligand present: no

Variant string | FACS-Seq fitted mean (log10)
UCGAUG | 0.26
CGUAUA | 0.0787
AGCGGU | 0.638
AAGGAG | 0.211
AGUGAU | 0.213
ACCGAG | 0.326
UCCUUG | 0.0329
GCAGUA | 0.218
AAAAAA | 0.489
GAGGCA | 0.286
AUUGCG | 0.231
AAAGGA | 0.158
CACUGA | 0.463
AUAAGU | 0.346
GAGAGA | 0.2
UGGAUG | 0.178
CUAAUA | 0.179
GUGGUG | 0.383
UCCACG | 0.0965
UGCCGG | 0.22
CUUGAU | 0.145
GACGAU | 0.612
GAUUAU | 0.371
UACCUC | 0.402
AUUAGG | 0.125
CAGGCU | 0.511
CGAAAA | 0.189
AGUAAA | 0.22
GAUGCG | 0.444
CAAUUA | 0.413
UACGAC | -0.293
AGGAAC | 0.484
ACUAAC | 0.18
UGAGUA | 0.204
UACUAU | 0.437
GAACGA | 0.313
GGGAGG | 0.108
GCUGCC | 0.382
UGAUCG | 0.0489
AGGAUA | 0.115
AAAUAU | 0.147
UGGUGU | 0.386
CACGUA | 0.476
UGCUGA | 0.285
AUGCAC | 0.724
CGAGUU | 0.137
GCCAGA | 0.385
CAUAAC | 0.339
GAUGGC | 0.227
ACGGGA | 0.247
UGUAGG | 0.342
CAUUAU | 0.493
CAGACC | 0.131
GCGAAC | 0.252
GUGCGU | 0.436
UUGGAG | -0.00192
GCUCAC | 0.502
GAUGGU | 0.536
AAUAGU | 0.361
CGUUAA | 0.362
UAUGCU | -0.0167
GGGAUG | 0.385
AGGAGA | 0.26
CUUGGC | 0.556
GGUACA | -0.547
GAAUCA | 0.429
ACGCCU | -0.804
CUAGAU | 0.368
CAGGUG | 0.231
UGAACU | 0.534
UACAAU | 0.467
UACAGG | 0.254
CGGUUA | 0.594
UGGAGA | 0.189
UAAGUU | 0.118
GUGAUA | 0.573
CUUGGA | 0.658
ACGUGA | 0.282
CUGGAU | 0.302
AAGAUA | -0.141
GACUAC | 0.495
ACCAAA | 0.632
AACAUC | -0.902
GGUAUG | 0.288
AAUCUA | 0.267
UUAUCU | 0.453
UAACGC | 0.334
UCGCAU | 0.644
UGACUG | 0.14
CAGAGG | -0.0517
UGGGCG | 0.142

Origin of values: the supplement of paper PMC6757056
